Provenance of the data: PubChem BioAssay AID1347420

inhibition by entry:
assay.system: Sulfhydryl oxidase 1 (Homo sapiens) (UniProt O00391)
Sequence (O00391 whole entry, looked up): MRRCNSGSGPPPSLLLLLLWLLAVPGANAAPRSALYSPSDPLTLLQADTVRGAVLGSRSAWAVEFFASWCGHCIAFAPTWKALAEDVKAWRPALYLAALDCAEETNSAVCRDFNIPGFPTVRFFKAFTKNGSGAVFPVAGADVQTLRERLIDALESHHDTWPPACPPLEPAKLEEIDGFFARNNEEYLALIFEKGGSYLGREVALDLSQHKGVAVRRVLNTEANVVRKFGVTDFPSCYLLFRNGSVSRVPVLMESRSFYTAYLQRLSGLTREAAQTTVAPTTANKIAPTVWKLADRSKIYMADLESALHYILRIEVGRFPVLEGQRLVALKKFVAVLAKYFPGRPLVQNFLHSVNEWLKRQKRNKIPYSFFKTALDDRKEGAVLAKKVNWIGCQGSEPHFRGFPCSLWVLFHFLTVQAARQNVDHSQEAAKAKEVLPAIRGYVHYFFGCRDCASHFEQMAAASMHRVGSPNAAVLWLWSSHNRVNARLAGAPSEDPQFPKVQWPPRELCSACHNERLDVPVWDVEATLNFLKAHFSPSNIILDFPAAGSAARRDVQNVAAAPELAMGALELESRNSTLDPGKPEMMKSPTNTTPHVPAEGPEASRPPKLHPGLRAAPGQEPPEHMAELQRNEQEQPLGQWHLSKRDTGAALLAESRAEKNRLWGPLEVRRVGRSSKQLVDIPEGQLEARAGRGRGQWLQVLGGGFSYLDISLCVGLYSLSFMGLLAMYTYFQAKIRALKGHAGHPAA
experiment: QSOX1 enzyme inhibitors, primary screen, biochemical, HyperBlu H2O2 luminescence, HTS (AID 1347420); also: values above 100% were filed as inconclusive
experimental.conditions: recombinant QSOX1, HyperBlu H2O2 luminescence, at 12.5 µM, active compounds read high; active = any value above zero unless noted
Out of some 1,300 compounds screened, about 980 (75%) were called active. Another 4% or so got no clear call; they are omitted. The list shows a part of the results.
result.type: inhibition

compound	assay.system	observed.result
C=CCN(C1=NCCN1)c1c(Cl)cccc1Cl	Sulfhydryl oxidase 1 (Homo sapiens) (UniProt O00391)	9.6% (active)
COc1ccccc1N1CCNCC1	Sulfhydryl oxidase 1 (Homo sapiens) (UniProt O00391)	-0.1% [setting not given] (inactive)
O=P1(N(CCCl)CCCl)NCCCO1 (stereo not given)	Sulfhydryl oxidase 1 (Homo sapiens) (UniProt O00391)	-3.8% (inactive)
O=C(CCCN1CCC2(CC1)C(=O)NCN2c1ccccc1)c1ccc(F)cc1	Sulfhydryl oxidase 1 (Homo sapiens) (UniProt O00391)	7.6% [setting not given] (active)
CCN1C[C@@]2(COC)C3[C@@H](OC)C4[C@@H]1C3([C@@H]1C[C@@]3(O)[C@H](OC(=O)c5ccccc5)[C@@H]1[C@]4(OC(C)=O)[C@@H](O)[C@@H]3OC)[C@H](OC)C[C@H]2O	Sulfhydryl oxidase 1 (Homo sapiens) (UniProt O00391)	4.1% (active)
CNCCc1ccc(O)c(O)c1	Sulfhydryl oxidase 1 (Homo sapiens) (UniProt O00391)	50.2% (active)
CN1CC[C@@]2(C)c3cc(OC(=O)Nc4ccccc4)ccc3N(C)[C@@H]12	Sulfhydryl oxidase 1 (Homo sapiens) (UniProt O00391)	41.8% (active)
CC[C@@H](CO)NC(=O)[C@@H]1C=C2c3cccc4c3c(cn4C)C[C@H]2N(C)C1	Sulfhydryl oxidase 1 (Homo sapiens) (UniProt O00391)	9.7% [setting not given] (active)
NC(=O)COc1c(F)cc(SCCNS(=O)(=O)c2ccccc2)cc1F	Sulfhydryl oxidase 1 (Homo sapiens) (UniProt O00391)	-12.8% (inactive)
CC(C)Oc1cccnc1N(C)C1CCN(Cc2ccccc2)CC1	Sulfhydryl oxidase 1 (Homo sapiens) (UniProt O00391)	7% (active)
CC(C)c1cccc(C(C)C)c1O	Sulfhydryl oxidase 1 (Homo sapiens) (UniProt O00391)	16.7% (active)
CCn1cnc2c(Nc3cccc(Cl)c3)nc(N[C@@H]3CCCC[C@@H]3N)nc21	Sulfhydryl oxidase 1 (Homo sapiens) (UniProt O00391)	10.8% (active)
C[C@H](N)Cc1cccc(C(F)(F)F)c1	Sulfhydryl oxidase 1 (Homo sapiens) (UniProt O00391)	4.9% [setting not given] (active)
NC(CCP(=O)(O)O)C(=O)O (stereo not given)	Sulfhydryl oxidase 1 (Homo sapiens) (UniProt O00391)	12.3% (active)
O=C1CCCN1CC#CCN1CCCC1	Sulfhydryl oxidase 1 (Homo sapiens) (UniProt O00391)	12.7% [setting not given] (active)
CC(C)NC(C)Cc1ccc(I)cc1 (stereo not given)	Sulfhydryl oxidase 1 (Homo sapiens) (UniProt O00391)	19.1% [setting not given] (active)
COc1ccc2c(c1)[C@@]13CCCC[C@H]1[C@@H](C2)NCC3	Sulfhydryl oxidase 1 (Homo sapiens) (UniProt O00391)	-2.6% [setting not given] (inactive)
C=CCN1CC[C@]23CCCCC2[C@H]1Cc1ccc(O)cc13 (stereo not given in full)	Sulfhydryl oxidase 1 (Homo sapiens) (UniProt O00391)	6% [setting not given] (active)
CN1CC[C@@]2(C)c3cc(O)ccc3N(C)C12 (stereo not given in full)	Sulfhydryl oxidase 1 (Homo sapiens) (UniProt O00391)	52.2% (active)
NC(=O)c1ccc(OCC(O)CN2CC=C(c3ccc(F)cc3)CC2)cc1 (stereo not given)	Sulfhydryl oxidase 1 (Homo sapiens) (UniProt O00391)	-3.1% (inactive)
CC[C@@H](CO)NC(=O)[C@@H]1C=C2c3cccc4[nH]cc(c34)C[C@H]2N(C)C1	Sulfhydryl oxidase 1 (Homo sapiens) (UniProt O00391)	24.7% [setting not given] (active)
O=[N+]([O-])c1cc(O)c(O)c([N+](=O)[O-])c1	Sulfhydryl oxidase 1 (Homo sapiens) (UniProt O00391)	84.7% (active)
OC1CCCCC1N1CCC(c2ccccc2)CC1 (stereo not given)	Sulfhydryl oxidase 1 (Homo sapiens) (UniProt O00391)	6.2% [setting not given] (active)
CN1C2CCC1CC(OC(c1ccccc1)c1ccccc1N)C2 (stereo not given)	Sulfhydryl oxidase 1 (Homo sapiens) (UniProt O00391)	14.6% (active)
NC(=O)c1cc(N2CC2)c([N+](=O)[O-])cc1[N+](=O)[O-]	Sulfhydryl oxidase 1 (Homo sapiens) (UniProt O00391)	15.2% (active)
NNC(=O)c1ccc(O)cc1	Sulfhydryl oxidase 1 (Homo sapiens) (UniProt O00391)	3.3% (active)
NC(CCCCCP(=O)(O)O)C(=O)O (stereo not given)	Sulfhydryl oxidase 1 (Homo sapiens) (UniProt O00391)	-4.7% (inactive)
NCC(O)c1cc(O)c(O)cc1F (stereo not given)	Sulfhydryl oxidase 1 (Homo sapiens) (UniProt O00391)	72.8% (active)
c1ccc2c(N3CCNCC3)cccc2c1	Sulfhydryl oxidase 1 (Homo sapiens) (UniProt O00391)	3% (active)
O=[N+]([O-])/C=C/c1ccc2c(c1)OCO2	Sulfhydryl oxidase 1 (Homo sapiens) (UniProt O00391)	19.2% (active)

====

assay.system: Sulfhydryl oxidase 1 (Homo sapiens) (UniProt O00391)
experiment: QSOX1 enzyme inhibitors, primary screen, biochemical, HyperBlu H2O2 luminescence, HTS (AID 1347420); also: values above 100% were filed as inconclusive
experimental.conditions: recombinant QSOX1, HyperBlu H2O2 luminescence, at 12.5 µM, active compounds read high; active = any value above zero unless noted
In all, about 1,300 compounds went through this assay and about 980 (75%) were called active. Inconclusive results (about 4%) are left out. This is one part of the list.
Possible outcomes: t for active, f for inactive

compound	class
NC(N)=NOCC[C@H](N)C(=O)O	f
Cc1nccc2c1[nH]c1ccccc12	t
CC[C@@]1(O)C(=O)OCc2c1cc1n(c2=O)Cc2cc3ccccc3nc2-1	t
CCCN1CC[C@@H]2c3cc(O)ccc3CC[C@@H]21	t
CC12NC(Cc3ccccc31)c1ccccc12 (stereo unspecified)	t
CC(=O)NBr	t
O=C1/C(=C/c2ccccc2)C[C@@]2(O)[C@H]3Cc4ccc(O)c5c4[C@@]2(CCN3CC2CC2)[C@H]1O5	t
O=C1CC[C@@]2(O)C3Cc4ccc(O)c5c4C2(CCN3CC2CC2)[C@H]1O5 (stereo partly specified)	t
C#CCOC(=O)C1=CCCN(C)C1	t
CCCN1CCC[C@@H]2Cc3[nH]ncc3C[C@H]21	t
CN1CCc2cccc(Cl)c2CC1	t

====

assay.system: Sulfhydryl oxidase 1 (Homo sapiens) (UniProt O00391)
experiment: QSOX1 enzyme inhibitors, primary screen, biochemical, HyperBlu H2O2 luminescence, HTS (AID 1347420); also: values above 100% were filed as inconclusive
experimental.conditions: recombinant QSOX1, HyperBlu H2O2 luminescence, at 12.5 µM, active compounds read high; active = any value above zero unless noted
The campaign covered roughly 1,300 compounds. About 980 (75%) were called active. Another 4% or so got no clear call; they are omitted. Some of the results follow.

molecule	inhibition
CNCC(O)c1ccc(O)cc1 (stereo not drawn)	11.4% [setting not given] (active)
CC(=O)[C@H]1CC[C@H]2[C@@H]3CC[C@H]4C[C@H](O)CC[C@]4(C)[C@H]3C(=O)C[C@]12C	5% [setting not given] (active)
CCOC(=O)c1ncn2c1[C@@H]1CCCN1C(=O)c1cc(OC)ccc1-2	13.3% (active)
NCCc1ccc(S(=O)(=O)F)cc1	22.8% (active)
COc1cc(C(O)CN)ccc1O (stereo not drawn)	20.7% (active)
CC(=O)[C@H]1CCC2C3CC[C@H]4C[C@H](O)CC[C@]4(C)C3CC[C@@]21C (stereo partly drawn)	4.6% [setting not given] (active)
CC(Cc1ccc(O)cc1)NCC(O)c1cc(O)cc(O)c1 (stereo not drawn)	15% [setting not given] (active)
NCCc1ccc(O)cc1	14.4% [setting not given] (active)
